meta.source: patent US20240247031A1

- Tested on: LNCaP
- method: cells
- Type: cell-based, human
- condition_parameters: human, 48 h
Where a SMILES comes first, the peptide text is derived from it. [ ]: non-standard residue; d: D form. pGlu = O=C1CC[C@@H](C(=O)O)N1
measure: Cytotoxicity (IC50) LNCaP
Please provide the amount together with its unit, number first.

Recorded results for 2 compounds are shown here.
Find the recorded Cytotoxicity (IC50) LNCaP belonging to CCNC(=O)[C@@H]1CCCN1C(=O)[C@@H](NC(=O)[C@H](Cc1ccccc1)NC(=O)[C@H](CCCNC(=N)N)NC(=O)[C@@H]1CCCN1C(=O)[C@H](C)NC(=O)[C@H](Cc1ccc(O)cc1)NC(=O)[C@H](CO)NC(=O)[C@H](Cc1c[nH]c2ccccc12)NC(=O)[C@H](Cc1c[nH]cn1)NC(=O)[C@@H]1CCC(=O)N1)[C@@H](C)CC [HS1003] ([pGlu]HWSYAPRFIP-NHEt; C-terminus assumed) and report it.
10.9 ± 0.48 µg/mL

// returns reported Cytotoxicity (IC50) LNCaP for input CC(C)C[C@H](NC(=O)CNC(=O)[C@@H](NC(=O)[C@H](CO)NC(=O)[C@H](CC(C)C)NC(=O)[C@H](CC(C)C)NC(=O)[C@H](C)NC(=O)[C@@H]1CCCN1C(=O)[C@H](CCCNC(=N)N)NC(=O)[C@H](C)NC(=O)[C@@H](N)CCC(=O)O)[C@@H](C)O)C(=O)N[C@@H](CCCNC(=N)N)C(=O)N1CCC[C@H]1C(=O)N[C@@H](CCCCN)C(=O)O [HS1006] (H-EARPALLSTGLRPK-OH; N-terminus and C-terminus assumed)
14.17 ± 0.47 µg/mL

Could you now consider this next compound?
Recorded Cytotoxicity (IC50) LNCaP of CC(C)C[C@H](NC(=O)[C@H](C)NC(=O)[C@@H]1CCCN1C(=O)[C@H](CCCNC(=N)N)NC(=O)[C@H](C)NC(=O)[C@@H](N)CCC(=O)O)C(=O)N[C@@H](CC(C)C)C(=O)N[C@@H](CO)C(=O)N[C@H](C(=O)N[C@@H](CCCNC(=N)N)C(=O)N[C@@H](CC(C)C)C(=O)N[C@@H](CCCNC(=N)N)C(=O)N1CCC[C@H]1C(=O)O)[C@@H](C)O [HS1001] (H-EARPALLSTRLRP-OH; N-terminus and C-terminus assumed) , please.
6.55 ± 0.96 µg/mL

* * *

Reported Cytotoxicity (IC50) MCF-7 values are given for each entry in this list.
- System: MCF-7
- method: cells
- Type: cell-based, human
- condition_parameters: human, 48 h
Where a SMILES comes first, the peptide text is derived from it. [ ]: non-standard residue; d: D form. pGlu = O=C1CC[C@@H](C(=O)O)N1
Just the number please, in mg/L, no unit attached.

Bench note: what Cytotoxicity (IC50) MCF-7 did CCNC(=O)[C@@H]1CCCN1C(=O)[C@@H](NC(=O)[C@H](Cc1ccccc1)NC(=O)[C@H](CCCNC(=N)N)NC(=O)[C@@H]1CCCN1C(=O)[C@H](C)NC(=O)[C@H](Cc1ccc(O)cc1)NC(=O)[C@H](CO)NC(=O)[C@H](Cc1c[nH]c2ccccc12)NC(=O)[C@H](Cc1c[nH]cn1)NC(=O)[C@@H]1CCC(=O)N1)[C@@H](C)CC [HS1003] ([pGlu]HWSYAPRFIP-NHEt; C-terminus assumed) show?
47.28

More entries:
Would you mind telling me what Cytotoxicity (IC50) MCF-7 value was observed for CCNC(=O)[C@@H]1CCCN1C(=O)[C@@H](NC(=O)[C@H](Cc1ccccc1)NC(=O)[C@H](CCCNC(=N)N)NC(=O)[C@H](CC(C)C)NC(=O)[C@H](CCCNC(=N)N)NC(=O)[C@H](Cc1ccc(O)cc1)NC(=O)[C@H](CO)NC(=O)[C@H](Cc1c[nH]c2ccccc12)NC(=O)[C@H](Cc1c[nH]cn1)NC(=O)[C@@H]1CCC(=O)N1)[C@@H](C)CC [HS1002] ?
53.31

Form field: reported Cytotoxicity (IC50) MCF-7 of CC(C)C[C@H](NC(=O)[C@H](C)NC(=O)[C@@H]1CCCN1C(=O)[C@H](CCCNC(=N)N)NC(=O)[C@H](C)NC(=O)[C@@H](N)CCC(=O)O)C(=O)N[C@@H](CC(C)C)C(=O)N[C@@H](CO)C(=O)N[C@H](C(=O)N[C@@H](CCCNC(=N)N)C(=O)N[C@@H](CC(C)C)C(=O)N[C@@H](CCCNC(=N)N)C(=O)N1CCC[C@H]1C(=O)O)[C@@H](C)O [HS1001] (H-EARPALLSTRLRP-OH; N-terminus and C-terminus assumed)
48.26
